Target: T1, human neonatal Fc receptor (hFcRn) (human, UniProt P55899 24-290; P61769 21-119)
T1 construct: Biotinylated in the ELISA, Octet and yeast assays; also called human FcRn; huFcRn
T1 sequence (P55899 24-290 limits assumed, chain 1 of 2): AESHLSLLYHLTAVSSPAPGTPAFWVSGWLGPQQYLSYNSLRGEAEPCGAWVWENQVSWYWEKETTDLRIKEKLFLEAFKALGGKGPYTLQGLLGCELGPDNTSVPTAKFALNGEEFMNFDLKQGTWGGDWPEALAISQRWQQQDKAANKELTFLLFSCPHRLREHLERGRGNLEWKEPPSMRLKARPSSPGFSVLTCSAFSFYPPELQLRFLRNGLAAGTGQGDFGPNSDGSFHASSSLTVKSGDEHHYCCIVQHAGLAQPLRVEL
T1 sequence (P61769 21-119 limits assumed, chain 2 of 2): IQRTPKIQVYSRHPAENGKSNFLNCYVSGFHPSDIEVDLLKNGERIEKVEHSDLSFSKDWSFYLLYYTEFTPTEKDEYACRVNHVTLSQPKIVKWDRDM
Assay: phage ELISA pH 7.4;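 also: higher score means stronger binding and above about 3 to 5 exceeds background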
Procedure: Approximately 100 μL of biotinylated human FcRn at 2 μg/mL was added to the wells of MAXISORP™ plates coated with 10 μg/mL streptavidin. […] A horseradish peroxidase (HRP)-conjugated anti-M13 antibody was used to detect the binding phage, and the plates were scored by a microtiter plate reader using a wavelength in the visible range. Binding was assessed by a quantitative enzyme-linked immunoadsorbent assay (ELISA). […]
value kind: ELISA score
Keep the answer to the number alone.

Request: What value of ELISA score has been recorded for this entry: L5 isolate with insertion SEQ ID NO: 399 (other) EPKSCDKTHTCPPCPAPELLGGPSVFLFPPKPKDTLMISRTPEVTCVVVDVSHEDPEVKFNWYVDGVEVHNAKTKPREEQYNSTYRVVSVLTVLHQDWLNGKEYKCKVSNKALPAPIEKTISKAKGQPREPQVYTLPPSRDELTKNQVSLTCLVKGFYPSDIAVEWESNGGCYENKTLCGGGQPENNYKTTPPVLDSDGSFFLYSKLTVDKSRWQQGNVFSCSVMHEALHNHYTQKSLSLSPGK
Result: 1.6

Request: What value of ELISA score has been recorded for this entry: L6B isolate with insertion SEQ ID NO: 468 (other) EPKSCDKTHTCPPCPAPELLGGPSVFLFPPKPKDTLMISRTPEVTCVVVDVSHEDPEVKFNWYVDGVEVHNAKTKPREEQYNSTYRVVSVLTVLHQDWLNGKEYKCKVSNKALPAPIEKTISKAKGQPREPQVYTLPPSRDELGGCTLGSAPTLCGGTKNQVSLTCLVKGFYPSDIAVEWESNGQPENNYKTTPPVLDSDGSFFLYSKLTVDKSRWQQGNVFSCSVMHEALHNHYTQKSLSLSPGK
Result: 0.2

Request: What value of ELISA score has been recorded for this entry: L5 isolate with insertion SEQ ID NO: 396 (other) EPKSCDKTHTCPPCPAPELLGGPSVFLFPPKPKDTLMISRTPEVTCVVVDVSHEDPEVKFNWYVDGVEVHNAKTKPREEQYNSTYRVVSVLTVLHQDWLNGKEYKCKVSNKALPAPIEKTISKAKGQPREPQVYTLPPSRDELTKNQVSLTCLVKGFYPSDIAVEWESNGGCREPHPFCGGGQPENNYKTTPPVLDSDGSFFLYSKLTVDKSRWQQGNVFSCSVMHEALHNHYTQKSLSLSPGK
Result: 8.9

Request: What value of ELISA score has been recorded for this entry: L5 isolate with insertion SEQ ID NO: 416 (other) EPKSCDKTHTCPPCPAPELLGGPSVFLFPPKPKDTLMISRTPEVTCVVVDVSHEDPEVKFNWYVDGVEVHNAKTKPREEQYNSTYRVVSVLTVLHQDWLNGKEYKCKVSNKALPAPIEKTISKAKGQPREPQVYTLPPSRDELTKNQVSLTCLVKGFYPSDIAVEWESNGGCETHYTYCGGGQPENNYKTTPPVLDSDGSFFLYSKLTVDKSRWQQGNVFSCSVMHEALHNHYTQKSLSLSPGK
Result: 0.5

Request: What value of ELISA score has been recorded for this entry: L5 isolate with insertion SEQ ID NO: 445 (other) EPKSCDKTHTCPPCPAPELLGGPSVFLFPPKPKDTLMISRTPEVTCVVVDVSHEDPEVKFNWYVDGVEVHNAKTKPREEQYNSTYRVVSVLTVLHQDWLNGKEYKCKVSNKALPAPIEKTISKAKGQPREPQVYTLPPSRDELTKNQVSLTCLVKGFYPSDIAVEWESNGGCPLVRADCGGGQPENNYKTTPPVLDSDGSFFLYSKLTVDKSRWQQGNVFSCSVMHEALHNHYTQKSLSLSPGK
Result: 0.4
